- target-system: EIF2AK3 (PERK) catalytic domain (amino acids 536-1116) (Homo sapiens)
- Construct: EIF2AK3 (PERK) catalytic domain (amino acids 536-1116)
- Sequence (Q9NZJ5 536-1116): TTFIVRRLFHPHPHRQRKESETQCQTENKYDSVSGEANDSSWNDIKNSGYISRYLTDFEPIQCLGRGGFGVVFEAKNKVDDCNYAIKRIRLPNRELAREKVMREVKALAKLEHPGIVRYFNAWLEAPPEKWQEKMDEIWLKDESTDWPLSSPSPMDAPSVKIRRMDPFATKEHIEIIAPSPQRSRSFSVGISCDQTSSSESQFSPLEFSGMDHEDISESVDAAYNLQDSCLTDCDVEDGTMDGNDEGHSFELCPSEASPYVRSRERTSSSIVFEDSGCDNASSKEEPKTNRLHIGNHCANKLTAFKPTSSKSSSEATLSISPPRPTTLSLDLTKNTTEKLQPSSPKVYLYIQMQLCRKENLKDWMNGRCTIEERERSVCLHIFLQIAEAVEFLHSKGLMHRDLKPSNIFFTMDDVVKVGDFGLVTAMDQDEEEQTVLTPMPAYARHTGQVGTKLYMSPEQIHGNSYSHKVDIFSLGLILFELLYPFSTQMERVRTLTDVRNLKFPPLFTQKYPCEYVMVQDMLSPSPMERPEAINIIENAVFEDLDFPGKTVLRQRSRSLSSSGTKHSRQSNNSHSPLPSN
- experimental-protocol: PERK in vitro activity assay (isolated), TR-FRET kinase assay
- Format: biochemical
- experimental-parameters: isolated PERK enzyme, 1.5 μM ATP; read-out: Biochemical IC50
pIC50: −log10 of the molar value.
Some molecules, each annotated with its measured pIC50.

molecule="Cc1cccc(C(O)C(=O)Nc2ccc(-c3cn(C)c4nc(C)nc(N)c34)c(F)c2)c1 (stereo not shown) [Example 73]" measured_result="7.30 to 7.59"

# input Fill in: pIC50 of Cc1cc(NC(=O)Cc2ccc(F)cc2)ccc1-c1cn(C)c2ncnc(N)c12 [Example 140] is ___
# output 7.60 to 9.00

# input Okay, and Cc1nc(N)c2c(-c3ccc(NC(=O)C(O)c4ccccc4C)cc3Cl)cn(C)c2n1 (stereo not shown) [Example 94] ?
# output 7.60 to 9.00

# input Similarly, Cc1nc(N)c2c(-c3ccc(NC(=O)C(O)c4cccc(F)c4)cc3OC(F)(F)F)cn(C)c2n1 (single isomer, unassigned) [Example 21] ?
# output 7.60 to 9.00

# input Quick one: Cc1cc(NC(=O)Cc2ccc(C(F)(F)F)cc2)ccc1-c1cn(C)c2ncnc(N)c12 [Example 159]
# output 7.00 to 7.29

# input Cool, now Cn1cc(-c2ccc(NC(=O)C(O)c3cccc(F)c3)cc2F)c2c(N)ncnc21 (single isomer, unassigned) [Example 4]
# output 7.60 to 9.00

# input Cc1nc(N)c2c(-c3ccc(NC(=O)C(O)c4cccc(C(F)(F)F)n4)cc3C)cn(C)c2n1 (stereo not shown) [Example 61] , same question.
# output 6.60 to 7.00
